Experiment: Cell Viability - N2a (AID 540);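 note: cells exposed to compound for 40 h at 37 °C; plate controls were DMSO alone for no effect and tamoxifen control for full effect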
Details: N2a mouse neuroblastoma cell viability; at 92.2 µM (top of the series)
Inconclusive results are not listed.
Quick reference: activity change, negative = cytotoxicity of the listed items.
Quantity Kind: activity change, negative = cytotoxicity (%)

Compound	Quantity Kind	Quantitative Readout
Cc1cccc(C)c1O	activity change, negative = cytotoxicity	-7.98
[O-]/[N+](=N\O)c1ccccc1	activity change, negative = cytotoxicity	0.0649
ClC/C=C/CCl	activity change, negative = cytotoxicity	-2.88
C=CC(=O)OCCCC	activity change, negative = cytotoxicity	10.3
Cc1ccc(C)o1	activity change, negative = cytotoxicity	-9.8
CCCOCC(C)O (stereo not given)	activity change, negative = cytotoxicity	-5.54
CCOc1ccccc1N	activity change, negative = cytotoxicity	1.87
Nc1ccccc1S(=O)(=O)O	activity change, negative = cytotoxicity	4.97
CC(=O)OCc1ccco1	activity change, negative = cytotoxicity	-7.42
CCNc1ccccc1	activity change, negative = cytotoxicity	2.42
Cc1cccc(Br)c1	activity change, negative = cytotoxicity	-13.7
O=C1CCC(=O)O1	activity change, negative = cytotoxicity	2.23
Nc1cccc(S(=O)(=O)O)c1	activity change, negative = cytotoxicity	-6.89
CC(=O)c1nccs1	activity change, negative = cytotoxicity	2.98
CC/C(C)=N/O	activity change, negative = cytotoxicity	3.53
CCOC(=O)OCC	activity change, negative = cytotoxicity	-11.2
CC(C)(c1cc(Br)c(OCC(Br)CBr)c(Br)c1)c1cc(Br)c(OCC(Br)CBr)c(Br)c1 (stereo not given)	activity change, negative = cytotoxicity	5.75
CCNS(=O)(=O)c1ccc(C)cc1	activity change, negative = cytotoxicity	-13.9
C[C@@H]1O[C@@H](O[C@@H]2[C@@H](O)[C@H](OCCc3ccc(O)c(O)c3)O[C@H](CO[C@@H]3O[C@H](CO)[C@@H](O)[C@H](O)[C@H]3O)[C@H]2OC(=O)/C=C/c2ccc(O)c(O)c2)[C@H](O)[C@H](O)[C@H]1O	activity change, negative = cytotoxicity	-12.1
C=C(C)C1CC=C(C)C(OC(C)=O)C1 (stereo not given)	activity change, negative = cytotoxicity	-2.86
C/C(C=O)=C/c1ccccc1	activity change, negative = cytotoxicity	-1.48
Cc1cscn1	activity change, negative = cytotoxicity	6.1
Cc1ccco1	activity change, negative = cytotoxicity	0.379
Nc1cc(Cl)c(N)c(Cl)c1	activity change, negative = cytotoxicity	-5.31
COC(=O)CC#N	activity change, negative = cytotoxicity	-15.8
COc1cccc2sc(N)nc12	activity change, negative = cytotoxicity	-10.1
Cc1ccc2c(c1[N+](=O)[O-])C(=O)c1ccccc1C2=O	activity change, negative = cytotoxicity	3.24
CCOCC(=O)O	activity change, negative = cytotoxicity	-1.83
O=C1NC(=O)c2cc([N+](=O)[O-])ccc21	activity change, negative = cytotoxicity	-3.32
CC(=O)Nc1ccc(C)cc1	activity change, negative = cytotoxicity	-10.4
Oc1cccc(Nc2ccccc2)c1	activity change, negative = cytotoxicity	-16.5
OCCO	activity change, negative = cytotoxicity	-12.9
CCCCOCCOCCSC#N	activity change, negative = cytotoxicity	0.328
COc1ccccc1[N+](=O)[O-]	activity change, negative = cytotoxicity	-25.3
O=C(O)c1c(Cl)cccc1Cl	activity change, negative = cytotoxicity	-6.78
Cc1ccc(C)c(N)c1	activity change, negative = cytotoxicity	-15.8
Cc1ccc2oc(=O)ccc2c1	activity change, negative = cytotoxicity	-1.53
NC(=O)c1cccc([N+](=O)[O-])c1	activity change, negative = cytotoxicity	-1.6
CCC(C)=O	activity change, negative = cytotoxicity	-16.1
CC(=O)CC(C)C	activity change, negative = cytotoxicity	-14.8
CC1CCCO1 (stereo not given)	activity change, negative = cytotoxicity	-13.8
O=Cc1ccccc1Cl	activity change, negative = cytotoxicity	-4.91
OC1CCCC1	activity change, negative = cytotoxicity	-9.14
O=[N+]([O-])c1ccc(CCO)cc1	activity change, negative = cytotoxicity	-10.2
Cc1cccc2ccccc12	activity change, negative = cytotoxicity	-4.08
CCN(Cc1ccccc1)c1ccccc1	activity change, negative = cytotoxicity	15.1
Clc1ccc(Cl)c(Cl)c1Cl	activity change, negative = cytotoxicity	-2.29
Nc1cccc2c(=O)[nH][nH]c(=O)c12	activity change, negative = cytotoxicity	9.7
O=C(O)CNC(=O)c1ccc([N+](=O)[O-])cc1	activity change, negative = cytotoxicity	-8.74
C[C@@H]1CC2(OC[C@]3(C)O[C@H]23)O[C@H]2C[C@@]3(C)[C@@H]4CC[C@H]5C(C)(C)C(O[C@@H]6OC[C@@H](O)[C@H](O)[C@H]6O)CC[C@@]56C[C@@]46CC[C@]3(C)[C@@H]12 (stereo not given in full)	activity change, negative = cytotoxicity	11

Origin of measurements: PubChem BioAssay (NCATS)
